From: ChEMBL document CHEMBL1136493

tested on: CCRF-CEM; test: Cytostatic concentration required to inhibit CEM cell proliferation by 50%; type: functional; settings: Homo sapiens
RESULT_TYPE: log10 of CC50 (log10 of the value in µM)

{"COMPOUND": "C[N+]1(CCOCCOCCN)CC23C4=c5c6c7c8c9c%10c%11c%12c%13c9c9c%14c%15c%16c%17c%18c%19c%20c%21c%22c%23c%24c(c-%11c(c2c%24c2c%11c%24c%25c(c5c5c6c(c8%14)c%15c6c%17c(c%25c56)c5c%18c%21c(c%232)c%245)C%113C1)C4C%107)C%12C%22C%201C[N+](C)(CCOCCOCCN)CC%131C9C%19%16 (stereo unspecified)", "log10 of CC50": 0.68}
{"COMPOUND": "C[N+]1(CCOCCOCCN)CC23C4=c5c6c7c8c9c%10c%11c%12c%13c%14c%15c%16c%17c%18c%19c%20c%21c%22c%23c%24c(c2c%22c2c%22c%25c%26c(c5c(c6%10)c5c%11c6c%13c(c%14%18)c%10c%19c(c%212)c%25c%10c6c%265)C%223C1)C4C7c1c-%24c(c-%16c(c1-8)C%15C9%12)C%23C%17%20 (stereo unspecified)", "log10 of CC50": 1.65}
{"COMPOUND": "NCCOCCOCCN1CC23C4=c5c6c7c8c9c%10c%11c%12c%13c9c9c%14c%15c%16c%17c%18c%19c%20c%21c%22c%23c%24c(c-%11c(c2c%24c2c%11c%24c%25c(c5c5c6c(c8%14)c%15c6c%17c(c%25c56)c5c%18c%21c(c%232)c%245)C%113C1)C4C%107)C%12C%22C%201CN(CCOCCOCCN)CC%131C9C%19%16 (stereo unspecified)", "log10 of CC50": 0.86}
{"COMPOUND": "NCCOCCOCCN1CC23C4=c5c6c7c8c9c%10c%11c%12c%13c%14c%15c%16c%17c%18c%19c%20c%21c%22c%23c%24c(c2c%22c2c%22c%25c%26c(c5c(c6%10)c5c%11c6c%13c(c%14%18)c%10c%19c(c%212)c%25c%10c6c%265)C%223C1)C4C7C1=C%24C(=C%16C2(CN(CCOCCOCCN)CC182)C%15C9%12)C%23C%17%20 (stereo unspecified)", "log10 of CC50": 0.88}
{"COMPOUND": "C[N+]1(CCOCCOCCN)CC23C4=c5c6c7c8c9c%10c%11c%12c%13c%14c%15c%16c%17c%18c%19c%20c%21c%22c(c2c%20c2c%20c%23c%24c(c5c7c5c9c7c%11c(c%12%16)c9c%17c(c%192)c%23c9c7c%245)C%203C1)C4C1C=6C2c3c1c-%22c(c-%14c3C%13C%10C82)C%211C[N+](C)(CCOCCOCCN)CC%15%181 (stereo unspecified)", "log10 of CC50": 1.12}
{"COMPOUND": "C[N+]1(CCOCCOCCN)CC23C4=c5c6c7c8c9c%10c%11c%12c%13c%14c%15c%16c%17c%18c%19c%20c%21c%22c%23c%24c(c2c%22c2c%22c%25c%26c(c5c(c6%10)c5c%11c6c%13c(c%14%18)c%10c%19c(c%212)c%25c%10c6c%265)C%223C1)C4C7C1=C%24C(=C%16C2(C[N+](C)(CCOCCOCCN)CC182)C%15C9%12)C%23C%17%20 (stereo unspecified)", "log10 of CC50": 0.48}
